# inhibition values compiled below
- assayed system: Hepatocyte growth factor receptor (Homo sapiens) (UniProt P08581);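 also: reported values are means of MET inhibition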
- Sequence (P08581 whole entry): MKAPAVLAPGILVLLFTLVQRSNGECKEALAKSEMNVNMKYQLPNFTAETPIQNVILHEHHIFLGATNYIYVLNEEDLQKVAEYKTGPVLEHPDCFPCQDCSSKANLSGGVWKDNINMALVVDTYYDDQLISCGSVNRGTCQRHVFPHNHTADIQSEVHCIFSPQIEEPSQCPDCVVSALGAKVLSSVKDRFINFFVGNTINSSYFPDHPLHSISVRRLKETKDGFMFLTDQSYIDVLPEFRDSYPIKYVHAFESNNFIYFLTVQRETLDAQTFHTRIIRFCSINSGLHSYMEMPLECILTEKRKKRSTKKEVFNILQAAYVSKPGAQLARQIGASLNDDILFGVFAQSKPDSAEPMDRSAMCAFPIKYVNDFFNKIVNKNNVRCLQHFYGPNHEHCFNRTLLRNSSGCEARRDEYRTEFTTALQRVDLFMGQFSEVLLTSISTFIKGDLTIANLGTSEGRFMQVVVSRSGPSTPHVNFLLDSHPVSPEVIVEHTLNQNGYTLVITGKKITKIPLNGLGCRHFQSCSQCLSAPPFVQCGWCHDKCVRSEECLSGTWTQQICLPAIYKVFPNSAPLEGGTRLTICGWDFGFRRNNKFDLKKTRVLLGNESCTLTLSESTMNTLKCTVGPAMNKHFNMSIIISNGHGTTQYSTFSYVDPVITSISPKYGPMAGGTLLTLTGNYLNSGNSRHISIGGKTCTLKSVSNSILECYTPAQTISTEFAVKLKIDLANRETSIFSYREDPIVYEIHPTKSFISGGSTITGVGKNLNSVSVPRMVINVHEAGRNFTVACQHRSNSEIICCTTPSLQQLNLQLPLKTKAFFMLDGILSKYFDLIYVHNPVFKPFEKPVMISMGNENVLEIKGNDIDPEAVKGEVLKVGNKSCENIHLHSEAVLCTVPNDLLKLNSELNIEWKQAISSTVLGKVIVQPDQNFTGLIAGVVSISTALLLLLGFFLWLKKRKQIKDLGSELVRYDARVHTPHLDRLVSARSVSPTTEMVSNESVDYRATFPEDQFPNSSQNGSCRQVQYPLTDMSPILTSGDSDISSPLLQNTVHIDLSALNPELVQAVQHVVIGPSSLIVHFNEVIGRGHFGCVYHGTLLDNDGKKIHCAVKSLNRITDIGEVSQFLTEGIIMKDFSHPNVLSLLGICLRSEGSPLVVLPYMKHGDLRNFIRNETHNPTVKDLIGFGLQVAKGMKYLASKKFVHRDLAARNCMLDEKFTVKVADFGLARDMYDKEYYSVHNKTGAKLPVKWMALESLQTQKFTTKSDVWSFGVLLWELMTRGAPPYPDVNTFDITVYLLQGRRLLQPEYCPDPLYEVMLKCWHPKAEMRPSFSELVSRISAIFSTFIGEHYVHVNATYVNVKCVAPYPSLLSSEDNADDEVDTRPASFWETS
- condition info: at 0.1 µM

Would you please look over these solved cases?
smiles_entry=NS(=O)(=O)c1ccc(N/N=C2\C(=O)Nc3ccc(C(=O)NCCc4c[nH]cn4)cc32)cc1 assay_value=8.81%
smiles_entry=CCCN1CCC=C(c2ccc(Nc3nc(Nc4ccccc4C(N)=O)c4cc[nH]c4n3)c(C)c2)C1 assay_value=6.76%
smiles_entry=CS(=O)(=O)CCNCc1nc(-c2ccc3ncnc(Nc4ccc(F)c(Cl)c4)c3c2)cs1 assay_value=3.54%
smiles_entry=NS(=O)(=O)c1cccc(-c2ccc3c(NC(=O)C4CC4)n[nH]c3c2)c1 assay_value=-4.06%
smiles_entry=Cn1cc(C=C2C(=O)Nc3cccnc32)c2ccccc21 assay_value=0.96%

For reference, reported inhibition for COc1ccccc1Nc1ncc(-c2ccccc2)o1 stands at 10.1%

For reference, reported inhibition for CS(=O)(=O)CCNCc1ccc(-c2ccc3ncnc(Nc4ccc(OCc5cccc(F)c5)c(C(F)(F)F)c4)c3c2)o1 stands at 7.18%

----------
- assayed system: Glycogen synthase kinase-3 beta (Homo sapiens) (UniProt P49841);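 also: reported values are mean percent inhibition of GSK3B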
- Sequence (P49841 whole entry, looked up): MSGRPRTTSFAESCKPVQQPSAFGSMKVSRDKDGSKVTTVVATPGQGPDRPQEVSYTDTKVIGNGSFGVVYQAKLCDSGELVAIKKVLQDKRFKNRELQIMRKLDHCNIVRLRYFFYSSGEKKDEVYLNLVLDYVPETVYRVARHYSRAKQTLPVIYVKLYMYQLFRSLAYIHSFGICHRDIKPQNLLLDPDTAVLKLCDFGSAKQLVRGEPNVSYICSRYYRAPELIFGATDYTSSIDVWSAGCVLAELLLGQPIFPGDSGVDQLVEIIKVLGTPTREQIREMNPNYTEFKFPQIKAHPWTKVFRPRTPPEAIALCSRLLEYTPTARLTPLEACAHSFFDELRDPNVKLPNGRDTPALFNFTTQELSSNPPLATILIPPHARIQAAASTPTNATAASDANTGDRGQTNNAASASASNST
- condition info: at 1 µM
Rule: inhibition of 8% or more gives t; anything lower gives f.

Completed entries (count: 3):
smiles_entry=Nc1ncnc2occ(-c3ccc(NC(=O)Nc4cc(C(F)(F)F)cc(C(F)(F)F)c4)cc3)c12 group_label=f
smiles_entry=CN(C)c1cc2c(Nc3ccc4nc(Cc5ccccc5)[nH]c4c3)ncnc2cn1 group_label=f
smiles_entry=CCn1c(-c2nonc2N)nc2c(C#CC(C)(C)O)nc(OC[C@@H](N)c3ccccc3)cc21 group_label=t

Does the reported inhibition for CCn1c(-c2nonc2N)nc2cncc(C(=O)N3CCNCC3)c21 fall at or above the 8% mark?
f

Does the reported inhibition for CCCN1CCC(Oc2cc(Nc3nc(Nc4cccc(F)c4C(N)=O)c4cc[nH]c4n3)c(OC)cc2Cl)CC1 fall at or above the 8% mark?
t

Does the reported inhibition for CS(=O)(=O)CCNCc1nc(-c2ccc3ncnc(Nc4ccc(F)c(Cl)c4)c3c2)cs1 fall at or above the 8% mark?
f

Does the reported inhibition for CCn1c(-c2nonc2N)nc2cncc(C(=O)N3CC[C@H](N)C3)c21 fall at or above the 8% mark?
t

Does the reported inhibition for Cc1cccc(-c2n[nH]cc2-c2ccc3ncccc3n2)n1 fall at or above the 8% mark?
f

----------
- Test system: Epidermal growth factor receptor (Homo sapiens), P00533 [L861Q]
- Sequence (P00533 whole entry L861Q): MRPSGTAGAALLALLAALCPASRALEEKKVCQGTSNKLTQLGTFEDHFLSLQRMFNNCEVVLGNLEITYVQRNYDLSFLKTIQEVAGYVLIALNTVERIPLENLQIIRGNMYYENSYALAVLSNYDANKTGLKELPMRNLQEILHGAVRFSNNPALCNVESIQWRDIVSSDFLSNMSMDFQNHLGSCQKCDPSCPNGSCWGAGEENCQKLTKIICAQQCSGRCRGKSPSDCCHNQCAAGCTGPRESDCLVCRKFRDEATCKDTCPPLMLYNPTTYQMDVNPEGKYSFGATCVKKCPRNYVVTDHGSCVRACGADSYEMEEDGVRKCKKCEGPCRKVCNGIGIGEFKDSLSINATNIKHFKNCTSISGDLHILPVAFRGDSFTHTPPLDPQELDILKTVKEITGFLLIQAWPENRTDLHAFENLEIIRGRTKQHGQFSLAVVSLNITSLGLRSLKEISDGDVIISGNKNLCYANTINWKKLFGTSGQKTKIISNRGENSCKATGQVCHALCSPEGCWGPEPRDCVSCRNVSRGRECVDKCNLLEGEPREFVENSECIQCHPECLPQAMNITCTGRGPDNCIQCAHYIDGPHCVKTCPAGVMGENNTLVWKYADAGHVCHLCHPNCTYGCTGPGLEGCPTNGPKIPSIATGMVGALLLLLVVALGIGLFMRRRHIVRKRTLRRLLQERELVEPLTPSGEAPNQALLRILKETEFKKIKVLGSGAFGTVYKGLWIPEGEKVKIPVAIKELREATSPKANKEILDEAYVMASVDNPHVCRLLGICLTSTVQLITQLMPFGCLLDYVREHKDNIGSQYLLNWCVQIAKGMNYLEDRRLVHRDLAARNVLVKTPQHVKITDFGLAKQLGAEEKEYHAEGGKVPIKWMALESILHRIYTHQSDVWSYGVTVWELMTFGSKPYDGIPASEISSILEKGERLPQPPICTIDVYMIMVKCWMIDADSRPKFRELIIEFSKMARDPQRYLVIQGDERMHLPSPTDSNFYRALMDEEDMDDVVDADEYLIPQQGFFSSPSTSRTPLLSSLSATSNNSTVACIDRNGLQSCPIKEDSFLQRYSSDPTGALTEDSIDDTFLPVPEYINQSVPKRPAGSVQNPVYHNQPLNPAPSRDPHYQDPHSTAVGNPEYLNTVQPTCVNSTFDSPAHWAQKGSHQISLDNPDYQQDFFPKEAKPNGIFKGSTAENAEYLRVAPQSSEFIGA
- condition info: at 0.1 µM
# inhibition values compiled below
Supply the numeric figure in %, leaving out any unit text.

Would you please look over these solved cases?
smiles_entry=CS(=O)(=O)Nc1ccc(N/C=C2\C(=O)Nc3ccccc32)cc1 assayed_system="Epidermal growth factor receptor (Homo sapiens), P00533 [L861Q]" assay_value=0.35
smiles_entry=CCCN1CCC=C(c2ccc(Nc3nc(Nc4ccccc4C(N)=O)c4cc[nH]c4n3)c(C)c2)C1 assayed_system="Epidermal growth factor receptor (Homo sapiens), P00533 [L861Q]" assay_value=1.44
smiles_entry=Cc1cc(O)cc(C)c1/C=C/c1cncc(-c2nn[nH]n2)c1 assayed_system="Epidermal growth factor receptor (Homo sapiens), P00533 [L861Q]" assay_value=3.95
smiles_entry=Cc1cccc(-c2n[nH]cc2-c2ccc3ncccc3n2)n1 assayed_system="Epidermal growth factor receptor (Homo sapiens), P00533 [L861Q]" assay_value=-1.59

Note to self: inhibition of COc1ccc(-c2ccncc2)cc1C(N)=O with Epidermal growth factor receptor (Homo sapiens), P00533 [L861Q] was 4.48

Note to self: inhibition of [O-][S+]1CCN(Cc2ccc(-c3ccc4ncnc(Nc5ccc(OCc6ccccc6)c(F)c5)c4c3)o2)CC1 with Epidermal growth factor receptor (Homo sapiens), P00533 [L861Q] was 39.7

Note to self: inhibition of COC(=O)Nc1nc2cc(Oc3ccc(NC(=O)Nc4cccc(C(=O)O)c4)cc3)ccc2[nH]1 with Epidermal growth factor receptor (Homo sapiens), P00533 [L861Q] was 2.15

Note to self: inhibition of COc1ccc(-c2nn3ncccc3c2-c2ccnc(Nc3ccc(Cl)c(C(F)(F)F)c3)n2)cc1 with Epidermal growth factor receptor (Homo sapiens), P00533 [L861Q] was 2

Note to self: inhibition of COc1ccc(COc2ccc(Cc3cnc(N)nc3N)cc2OC)cc1 with Epidermal growth factor receptor (Homo sapiens), P00533 [L861Q] was -1.47

Note to self: inhibition of Nc1nc(-c2ccc3c(c2)C(=Cc2cc(Br)c(O)c(Br)c2)C(=O)N3)cs1 with Epidermal growth factor receptor (Homo sapiens), P00533 [L861Q] was 0.03
